# protocol.summary: Stability in Human Liver S9 fractions
# Format: in vitro ADME
# experimental.conditions: human, liver S9 fractions

compound | CLint scaled [mL/min/kg]
Cc1cc(NC(=O)Cn2nnc(-c3ccccc3)n2)n(C2CCS(=O)(=O)C2)n1 (stereo not shown) [15k] | 2.6

###

# protocol.summary: Intrinsic and predicted hepatic clearance in mouse liver microsomes
# Type: in vitro ADME
# experimental.conditions: mouse, liver microsomes
// CLint scaled lookup, one value per entry

compound | CLint scaled
Cc1cc(NC(=O)Cn2nnc(-c3ccc(Cl)c(Cl)c3)n2)n(C2CCCCC2)n1 [16d] | 489 mL/min/kg
Cc1cc(NC(=S)Cn2nnc(-c3ccccc3)n2)n(C2CCCCC2)n1 [15b] | > 5930 mL/min/kg
Cc1cc(NC(=O)Cn2cc(-c3ccccc3)nn2)n(C2CCCCC2)n1 [17a] | 596 mL/min/kg
Cc1cc(NC(=O)Cn2nnc(-c3ccccc3)n2)n(C2CCS(=O)(=O)C2)n1 (stereo not drawn) [15k] | < 49.5 mL/min/kg
Cc1cc(NC(=O)Cn2nnc(-c3ccccc3)n2)n(CC2CCCCC2)n1 [15q] | > 5930 mL/min/kg
Cc1cc(NC(=O)Cn2nnc(-c3cccc(F)c3)n2)n(C2CCCCC2)n1 [16g] | 2710 mL/min/kg
Cc1cc(NC(=O)Cn2nncc2-c2ccccc2)n(C2CCCCC2)n1 [17b] | 3490 mL/min/kg
Cc1cc(NC(=O)Cn2nnc(-c3ccccc3)n2)n(C2CCCCC2)n1 [15a] | 2920 mL/min/kg
Cc1cc(NC(=O)Cn2nnc(-c3ccccc3)n2)n(C2CCC(F)(F)CC2)n1 [15d] | 723 mL/min/kg
